Biological target: human Kv1.3 (Homo sapiens, UniProt P22001)
Construct: expressed in transfected cells; host or cells: stably transfected cells grown in medium for CHO cells
Sequence (P22001 whole entry): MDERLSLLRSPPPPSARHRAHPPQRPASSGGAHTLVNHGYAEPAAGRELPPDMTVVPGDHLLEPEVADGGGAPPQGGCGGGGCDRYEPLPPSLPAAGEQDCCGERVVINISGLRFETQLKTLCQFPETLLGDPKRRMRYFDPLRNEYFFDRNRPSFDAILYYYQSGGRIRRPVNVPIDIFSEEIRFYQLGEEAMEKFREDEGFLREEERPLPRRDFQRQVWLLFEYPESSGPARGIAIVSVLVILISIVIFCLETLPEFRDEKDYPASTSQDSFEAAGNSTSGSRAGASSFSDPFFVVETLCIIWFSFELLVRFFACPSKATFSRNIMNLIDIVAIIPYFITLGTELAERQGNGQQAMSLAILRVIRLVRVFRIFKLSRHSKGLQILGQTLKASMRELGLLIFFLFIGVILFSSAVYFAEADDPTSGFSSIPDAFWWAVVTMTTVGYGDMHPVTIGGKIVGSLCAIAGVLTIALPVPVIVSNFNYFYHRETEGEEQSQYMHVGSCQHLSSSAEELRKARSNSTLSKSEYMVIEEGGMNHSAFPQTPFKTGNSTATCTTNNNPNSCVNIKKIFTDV
Test: Kv1.3 Autopatch electrophysiology (whole cell patch-clamp, inhibition of charge movement)
Assay type: cell-based
Settings: compound at 1 μM; cells stably transfected with human Kv1.3; room temperature; total charge during step to +30 mV relative to control; read-out: hKv1.3 % inh.
Experimental: Kv1.3 Autopatch Electrophysiology Method Compounds were tested on these cells using the AutoPatch technology in whole cell mode. The external bathing solution contained (in mM): 150 NaCl, 10 KCl, 1 MgCl2, 3 CaCl2, 10 HEPES, pH 7.4 with NaOH. […] Electrophysiology voltage-step protocols and analysis of data was performed as follows. […] Inhibition of charge movement in the presence of drug was calculated relative to control.
measurement_name: inhibition at 1 µM (%)

Please review the entries below; each comes with its answer.
O=C(c1ccc(N(Cc2ccccc2)S(=O)(=O)c2cc(Cl)cc(Cl)c2)cc1)N1CCN(c2ccccc2)CC1 [Example 29] = 70
O=C(c1ccc(N(Cc2ccccc2)S(=O)(=O)c2ccccc2)cc1)N1CCc2ccccc2C1 [Example 55] = 81

a. Cc1ccc(CN(c2ccc(C(=O)N3CCN(c4ccccc4)CC3)cc2)S(=O)(=O)c2cn(C)cn2)cc1 [Example 43]
b. CC1CCCN1C(=O)c1ccc(N(Cc2ccc(Cl)cc2)S(=O)(=O)c2cn(C)cn2)cc1 (stereo not shown) [Example 98]
Req: Sorting ascending by inhibition at 1 µM, which comes first: a or b ? # answer = label of selected item
Resp: b
(b: 51%, a: 78%)

###

Biological target: human Kv1.3 (Homo sapiens)
Construct: expressed in transfected cells; host or cells: stably transfected cells grown in medium for CHO cells
Experiment: Kv1.3 Autopatch electrophysiology (whole cell patch-clamp, inhibition of charge movement)
Assay type: cell-based
Conditions: compound at 1 μM; cells stably transfected with human Kv1.3; room temperature; total charge during step to +30 mV relative to control; read-out: hKv1.3 % inh.
measurement_name: inhibition at 1 µM (%)

CC1(C)CCc2cc(S(=O)(=O)N(Cc3ccccc3)c3ccc(C(=O)N4CCN(c5ccccc5)CC4)cc3)ccc2O1 = 47

I. N#Cc1ccccc1S(=O)(=O)N(Cc1ccccc1)c1ccc(C(=O)N2CCN(c3ccccc3)CC2)cc1
II. COc1ccc(C2CCCN(C(=O)c3ccc(N(Cc4ccc(Cl)cc4)S(=O)(=O)c4ccccc4)cc3)C2)cc1 (stereo not shown)
Req: # return whichever of I and II has the smaller inhibition at 1 µM Write down the label attached to your selection.
Resp: II
(II: 47%, I: 84%)

1. O=C(c1ccc(N(Cc2ccccc2)S(=O)(=O)c2ccccc2)cc1)N1CCC(O)(c2ccccc2)CC1
2. Cn1cnc(S(=O)(=O)N(Cc2ccc(F)cc2)c2ccc(C(=O)N3CCOC(c4ccccc4)C3)cc2)c1 (stereo not shown)
Req: Hi! Which is lower in terms of inhibition at 1 µM, the first one 1 or the second one 2 ? Mark your selection by writing its label.
Resp: 2

###

Target: hKv1.5 (Homo sapiens)
Sequence (P22460 whole entry): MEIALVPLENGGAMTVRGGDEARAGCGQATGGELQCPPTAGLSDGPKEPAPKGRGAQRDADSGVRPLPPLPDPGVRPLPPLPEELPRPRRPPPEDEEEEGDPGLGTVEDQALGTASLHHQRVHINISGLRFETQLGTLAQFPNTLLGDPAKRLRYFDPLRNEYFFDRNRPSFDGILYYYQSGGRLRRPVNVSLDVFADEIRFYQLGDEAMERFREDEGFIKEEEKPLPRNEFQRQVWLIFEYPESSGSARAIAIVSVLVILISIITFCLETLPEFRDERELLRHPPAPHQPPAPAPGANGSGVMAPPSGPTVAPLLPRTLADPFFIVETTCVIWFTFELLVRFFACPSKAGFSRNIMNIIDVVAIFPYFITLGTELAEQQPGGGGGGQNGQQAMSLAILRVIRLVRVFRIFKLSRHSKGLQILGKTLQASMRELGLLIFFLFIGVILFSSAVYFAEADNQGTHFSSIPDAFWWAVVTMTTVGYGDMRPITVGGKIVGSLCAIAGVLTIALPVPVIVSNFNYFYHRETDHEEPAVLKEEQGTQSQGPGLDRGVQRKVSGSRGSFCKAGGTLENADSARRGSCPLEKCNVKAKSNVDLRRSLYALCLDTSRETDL
Assay: Kv1.5 Autopatch electrophysiology (whole cell patch-clamp)
Type: cell-based
Details: compound at 1 μM; room temperature (22-24° C.); total charge during step to 0 mV; read-out: hKv1.5 % inh.
measurement_name: inhibition at 1 µM (%)

Previously resolved entries follow.
Cc1nn(C)cc1S(=O)(=O)N(Cc1ccccc1)c1ccc(C(=O)N2CCN(c3ccccc3)CC2)cc1 [Example 46] = 62.9
O=C(c1ccc(N(Cc2ccccc2)S(=O)(=O)c2cccc(F)c2)cc1)N1CCN(c2ccccc2)CC1 [Example 21] = 70.9
Cn1cnc(S(=O)(=O)N(Cc2ccccc2)c2ccc(CN3CCN(c4ccccc4)CC3)cc2)c1 [Example 8] = 56.7
O=C(c1ccc(N(Cc2cccc(Cl)c2)S(=O)(=O)c2ccccc2)cc1)N1CCN(c2ccccc2)CC1 [Example 11] = 73.6
Cn1nccc1S(=O)(=O)N(Cc1ccccc1)c1ccc(C(=O)N2CCOC(c3ccccc3)C2)cc1 (centres unmarked) [Example 85] = 47
COc1cccc(CN(c2ccc(C(=O)N3CCN(c4ccccc4)CC3)cc2)S(=O)(=O)c2ccccc2)c1OC [Example 51] = 57.5
N#Cc1ccccc1S(=O)(=O)N(Cc1ccccc1)c1ccc(C(=O)N2CCN(c3ccccc3)CC2)cc1 [Example 24] = 71.9
COc1ccccc1CN(c1ccc(C(=O)N2CCN(c3ccccc3)CC2)cc1)S(=O)(=O)c1ccccc1 [Example 32] = 44.2
Cn1cnc(S(=O)(=O)N(Cc2ccc(Cl)cc2)c2ccc(C(=O)N3CCCC(Oc4ccccc4)C3)cc2)c1 (centres unmarked) [Example 62] = 52.4
Cn1cnc(S(=O)(=O)N(Cc2ccc(F)cc2)c2ccc(C(=O)N3CCOC(c4ccccc4)C3)cc2)c1 (centres unmarked) [Example 66] = 69

P. Cc1ccc(CN(c2ccc(C(=O)N3CCN(c4ccccc4)CC3)cc2)S(=O)(=O)c2cn(C)cn2)cc1 [Example 43]
Q. Cn1cnc(S(=O)(=O)N(Cc2ccc(Cl)cc2)c2ccc(C(=O)N3CCCC(c4ccccc4)C3)cc2)c1 (centres unmarked) [Example 61]
Req: Smaller inhibition at 1 µM value, P vs Q ? Pick one; state its label.
Resp: P
(P: 46.4%, Q: 67.5%)

1. Cc1nc(C)c(S(=O)(=O)N(Cc2ccccc2)c2ccc(C(=O)N3CCN(c4ccccc4)CC3)cc2)s1 [Example 48]
2. O=C(c1ccc(N(Cc2ccccc2)S(=O)(=O)c2cc(Cl)cc(Cl)c2)cc1)N1CCN(c2ccccc2)CC1 [Example 29]
Req: Returns: the label, 1 or 2 , whose recorded inhibition at 1 µM is the lower number. Could you answer with the label of the item you picked?
Resp: 1
